Origin of values: PubChem BioAssay (Tox21)

experiment: qHTS assay to identify small molecule agonists of the farnesoid-X-receptor (FXR) signaling pathway - cell viability counter screen (AID 743218); settings: FXR-bla HEK293T viability, CellTiter-Glo luminescence, 16 h; series mostly up to 62.6 µM; also: nearly all actives have a fitted effect of over 45% in size
Results filed as inconclusive are left out. Calls of active or inactive are those of the source. Calls follow the shape of the dose curve; as a rule, active = well fitted cell-killing curve with a large enough effect in the repeat runs; inconclusive = weak or mixed curves, or effect the other way; inactive = no such curve, though single readings can be large or run the other way.
Answer with one of the outcomes given here: 1.0 for active, 0.0 for inactive

A selection of reference data follows.
- MOLECULE: "Clc1cc(Cl)nc(Cl)n1"
  ANSWER LABEL: 0.0
- MOLECULE: "CC(C)=CCC/C(C)=C/CC/C(C)=C/CCC(=O)OC/C=C(\\C)CCC=C(C)C"
  ANSWER LABEL: 0.0
- MOLECULE: "CN1C(=O)OC(C)(C)C1=O"
  ANSWER LABEL: 0.0
- MOLECULE: "CC1(C)[C@H](C(=O)O)N2C(=O)C[C@H]2S1(=O)=O"
  ANSWER LABEL: 0.0
- MOLECULE: "CC(C)COCC(CN(Cc1ccccc1)c1ccccc1)N1CCCC1 (stereo unspecified)"
  ANSWER LABEL: 1.0

GET /call?item= `CN(C)CCN1C(=O)c2ccccc2N(C)c2ccccc21` returns the recorded outcome of this test.
0.0

In this assay, the call recorded for `c1csc(SSc2cccs2)c1` was what?
0.0

Which outcome was assigned to `CN(C)CCC=C1c2ccccc2C=Cc2ccccc21` in this test?
1.0

Would you mind telling me which call this test gave `CCCCCCCC/C=C\CCCCCCCCCCCC(=O)O` ?
0.0

Which outcome was assigned to `CCC(C)(C)OC` in this test?
0.0

GET /call?item= C=CC(C)(CCC=C(C)C)OC(=O)CC(C)C (stereo unspecified) returns the recorded outcome of this test.
0.0
